System: EKVX NSCLC
Test: NCI tumour cell line growth inhibition, 48 h
The reader will find reported TGI values listed item by item below.

Please review the entries below; each comes with its answer.
{"columns": ["compound", "TGI"],
 "data": [
  ["BrC(=C(c1ccc(OC2CCCCO2)cc1)c1ccc(OC2CCCCO2)cc1)c1ccccc1 (stereo not drawn)", "> 100 µM"],
  ["O=[N+]([O-])c1ccc2occ3c2c1CCC3", "> 100 µM"]
]}

What value of TGI has been recorded for this entry: COc1ccc(-c2nnc3n(C)c(=O)c4ccccc4n23)cc1N
> 100 µM

What value of TGI has been recorded for this entry: Cc1ccc(C2=CC(=O)OC(C[P+](c3ccccc3)(c3ccccc3)c3ccccc3)(c3ccccc3)O2)cc1 (stereo not drawn)
30 µM

What value of TGI has been recorded for this entry: C=CCC1(c2ccc(OC)cc2)C=CC(=O)CC1 (stereo not drawn)
> 100 µM

What value of TGI has been recorded for this entry: Cc1ccc2nc(/C(=C/c3ccc(/C=C(\NC(=O)c4ccccc4)c4nc5ccc(C)cc5[nH]4)c(C)c3)NC(=O)c3ccccc3)[nH]c2c1
> 100 µM

What value of TGI has been recorded for this entry: O=C(NC[C@H](O)CN1CCc2ccccc2C1)c1cc(NC2COC2)ncn1
> 100 µM

What value of TGI has been recorded for this entry: CC(c1ccccc1)N1CCN(C(C)c2ccccc2)CC1 (stereo not drawn)
> 100 µM

What value of TGI has been recorded for this entry: NS(=O)(=O)c1ccc(N=Nc2c(O)c(C(=O)O)cc3ccccc23)cc1
> 100 µM

What value of TGI has been recorded for this entry: CC(C)c1cc2c(c(O)c1O)[C@@]1(C(=O)O)CCCC(C)(C)[C@@H]1CC2
30.8 µM

What value of TGI has been recorded for this entry: CCCNc1ncnc2c1ncn2C
> 100 µM

What value of TGI has been recorded for this entry: COC(=O)/C(C#N)=C1\N=NNN1c1ccc(OC)cc1
> 100 µM

What value of TGI has been recorded for this entry: Cc1ccccc1C(=O)c1cc(O)ccc1O
> 100 µM

What value of TGI has been recorded for this entry: Cc1c(O)nc(-n2[nH]c3c(c2=O)CCCC3)[nH]c1=O
> 100 µM

What value of TGI has been recorded for this entry: COc1ccc(OCC(=O)O)c2c1CCCC2=O
> 100 µM

What value of TGI has been recorded for this entry: N#C/C(=C\c1ccc2ccccc2c1)C(=O)c1ccccc1
> 100 µM

What value of TGI has been recorded for this entry: COC(=O)C(=Cc1cc(OC)c(OC)c(OC)c1-c1cc2c(cc1C1(C)OCCS1)OCO2)C(=O)OC (stereo not drawn)
> 100 µM

What value of TGI has been recorded for this entry: CCOS(C)(=O)=O
> 100 µM

What value of TGI has been recorded for this entry: O=C(OC1CCC(=C2SCCCS2)[C@H]1C1SCCCS1)c1ccccc1 (stereo partly drawn)
> 100 µM

What value of TGI has been recorded for this entry: O=C(Nc1ccc(Br)cc1F)c1cc(Cl)ccc1O
> 26.2 µM

What value of TGI has been recorded for this entry: Cc1cccc(C)c1NC(=O)C(Cc1c[nH]c2ccccc12)NC(=O)OCc1ccccc1 (stereo not drawn)
45.3 µM

What value of TGI has been recorded for this entry: Cc1nc(Nc2cccnc2)sc1C(=O)/C=C/c1ccc(F)cc1
> 100 µM

What value of TGI has been recorded for this entry: O=C(O)[C@H]1CCCN1CP(=O)(O)CN1CCC[C@@H]1C(=O)O
> 100 µM
